# Zeta Count Rate Category values compiled below
assay: Turbidity, derived count rate of scattered light; type: physicochemical; conditions: category 1 / 0, no key given
EXPERIMENTAL_ENDPOINT: Zeta Count Rate Category

substance="QCKIKQII [CK6]" recorded_value=1
substance="RLRLTLC [CN13]" recorded_value=1
substance="QCKFKQFF [CK12]" recorded_value=1
substance="KVKVKVQV [JG14 / TG14]" recorded_value=0
substance="KFKFQFW [TM71]" recorded_value=1
substance="KIKIQIW [TM69]" recorded_value=1
substance="KLKLKLQL [TG16]" recorded_value=0
substance="KAKAKAQA [TG15]" recorded_value=0
substance="KFKFKFQF [TG18]" recorded_value=1

---

tested on: HIV-1 infection of TZM-bl cells; test: HIV-1 infectivity enhancement assay, β-galactosidase luminescence; assay type: cell-based; details: Feb2021; unrounded values of the 1.3 µM column
EXPERIMENTAL_ENDPOINT: Absolute Infectivity / RLU /s (Feb2021) (RLU /s)

substance="QCKIKIQINM [CK2]" assayed_system="HIV-1 infection of TZM-bl cells" recorded_value=15250
substance="QCKIKIQINMWQ [EF-C opt]" assayed_system="HIV-1 infection of TZM-bl cells" recorded_value=21221.11111
substance="CKIKIQI [MG3b]" assayed_system="HIV-1 infection of TZM-bl cells" recorded_value=19406.66667
substance="CQFQFQF [QBL4]" assayed_system="HIV-1 infection of TZM-bl cells" recorded_value=7570
substance="CSISIQINM [TM145]" assayed_system="HIV-1 infection of TZM-bl cells" recorded_value=10943.33333
substance="KFKFQF [JJA6]" assayed_system="HIV-1 infection of TZM-bl cells" recorded_value=686.7
substance="KIKIQINM [JGB2]" assayed_system="HIV-1 infection of TZM-bl cells" recorded_value=2947
substance="CKAKAQANMWQ [BL8]" assayed_system="HIV-1 infection of TZM-bl cells" recorded_value=600
substance="CKFKFQFNMWQ [BL2]" assayed_system="HIV-1 infection of TZM-bl cells" recorded_value=26320
substance="QCKFKFQFNMWQ [CK7]" assayed_system="HIV-1 infection of TZM-bl cells" recorded_value=19753.33333

---

Test: Turbidity, derived count rate of scattered light
Type: physicochemical
Details: turbidity, log10 of derived count rate of scattered light
Method: 4 µL of 1 mg/mL peptide fibrils solution is added to a 20 µL, 50 µM ThT–solution in PBS. The mixture is incubated for 15 min at RT to allow binding of ThT dye with β–sheet rich structures. […] Fluorescence spectra were recorded on an Infinite® M1000 PRO microplate reader (Tecan) at λem = 488 nm upon excitation at λex = 440 nm with 10 nm bandwidths and multiple reads per well (3×3). […] Furthermore, fluorescence microscopy was conducted by staining 1 µL preformed fibrils (1 mg/mL) with 9 µL ThT (50 µM). […]
EXPERIMENTAL_ENDPOINT: Log10 Count Rate

substance=KIKIQINAWQ experimental_endpoint="Log10 Count Rate" recorded_value=3.174
substance=KIKIQIAMWQ experimental_endpoint="Log10 Count Rate" recorded_value=2.733
substance=NMWQKIKQII experimental_endpoint="Log10 Count Rate" recorded_value=2.992
substance=RGDKIRGDKI experimental_endpoint="Log10 Count Rate" recorded_value=2.456
substance=QCKAKAQA experimental_endpoint="Log10 Count Rate" recorded_value=3.12
substance=RGEKIKIQINM experimental_endpoint="Log10 Count Rate" recorded_value=2.774
substance=MDQMDQMDQMDQMDQ experimental_endpoint="Log10 Count Rate" recorded_value=0.9823
substance=KAKAQA experimental_endpoint="Log10 Count Rate" recorded_value=1.321
substance=HIHIQIC experimental_endpoint="Log10 Count Rate" recorded_value=2.416
substance=QCKIKIQINM experimental_endpoint="Log10 Count Rate" recorded_value=3.979
substance=QCKIKQII experimental_endpoint="Log10 Count Rate" recorded_value=2.479
substance=KAKQAANMWQ experimental_endpoint="Log10 Count Rate" recorded_value=2.839
substance=CKAKAQANM experimental_endpoint="Log10 Count Rate" recorded_value=2.317
substance=QCKFKFQF experimental_endpoint="Log10 Count Rate" recorded_value=3.426
substance=CKFKQFFNM experimental_endpoint="Log10 Count Rate" recorded_value=4.436
substance=KVKGVGK experimental_endpoint="Log10 Count Rate" recorded_value=1.709
substance=NMWQKVGTPL experimental_endpoint="Log10 Count Rate" recorded_value=1.431
substance=QCKIKIQINMWQ experimental_endpoint="Log10 Count Rate" recorded_value=3.918
substance=KIKIQINMWQ experimental_endpoint="Log10 Count Rate" recorded_value=3.342
substance=KFKQFFNMWQ experimental_endpoint="Log10 Count Rate" recorded_value=2.375
substance=KAKAQANMWQ experimental_endpoint="Log10 Count Rate" recorded_value=1.749
substance=KIKIQI experimental_endpoint="Log10 Count Rate" recorded_value=2.035
substance=EIEIEIEI experimental_endpoint="Log10 Count Rate" recorded_value=2.731
substance=CETMYDKILKNLSRSR experimental_endpoint="Log10 Count Rate" recorded_value=3.041
substance=NMWQKFKFQF experimental_endpoint="Log10 Count Rate" recorded_value=4.148
substance=QCKFKQFF experimental_endpoint="Log10 Count Rate" recorded_value=2.353
substance=KKFQKKFQ experimental_endpoint="Log10 Count Rate" recorded_value=1.867
substance=QCKAKAQANMWQ experimental_endpoint="Log10 Count Rate" recorded_value=2.631
substance=RGECKFKFQF experimental_endpoint="Log10 Count Rate" recorded_value=2.341
substance=KIKIQINM experimental_endpoint="Log10 Count Rate" recorded_value=2.418
substance=KVKVKVQV experimental_endpoint="Log10 Count Rate" recorded_value=1.975
substance=KIKQIINMWQ experimental_endpoint="Log10 Count Rate" recorded_value=2.789
substance=CKFKFQFNMWQ experimental_endpoint="Log10 Count Rate" recorded_value=2.154
substance=KIKQIINM experimental_endpoint="Log10 Count Rate" recorded_value=3.395
substance=CKFKFQF experimental_endpoint="Log10 Count Rate" recorded_value=3.725
substance=QCKIKIQI experimental_endpoint="Log10 Count Rate" recorded_value=4.094
substance=KIKIKIKIYYYY experimental_endpoint="Log10 Count Rate" recorded_value=3.996
substance=CRFRVPF experimental_endpoint="Log10 Count Rate" recorded_value=1.869
substance=MKFKFQF experimental_endpoint="Log10 Count Rate" recorded_value=2.0933
substance=KIKIQINMW experimental_endpoint="Log10 Count Rate" recorded_value=2.38
substance=HGDKCHGDKC experimental_endpoint="Log10 Count Rate" recorded_value=1.095
substance=SISISRRI experimental_endpoint="Log10 Count Rate" recorded_value=1.403

---

# Count Rate / kcps values compiled below
assay: Turbidity, derived count rate of scattered light; assay type: physicochemical; settings: derived count rate of scattered light at 633 nm, 173°, from zeta-potential measurement, 0.1 mg/mL in 1 mM KCl after 1 d at 1 mg/mL in PBS; turbidity / microscopic aggregation; mean of triplicate
EXPERIMENTAL_ENDPOINT: Count Rate / kcps

substance=CKFKFQFNM recorded_value="2224 kcps"
substance=HIHIQIC recorded_value="261 kcps"
substance=EIEIEIEI recorded_value="538 kcps"
substance=KIKIQI recorded_value="108 kcps"
substance=ILKNLSRSRKIKIQIC recorded_value="2392 kcps"
substance="KLVFFAK [reference compound]" recorded_value="14 kcps"
substance=CRFRFHFH recorded_value="430.2 kcps"
substance=RGDKIKIQI recorded_value="298 kcps"
substance=KIKIQINM recorded_value="262 kcps"
substance=CHLHLQL recorded_value="1155 kcps"
substance=CKIWIQIY recorded_value="1842.4 kcps"
substance="MKVIFLKDVKG [reference compound]" recorded_value="137 kcps"
substance=KIKIQINAWQ recorded_value="1494 kcps"
substance=QCKFKQFFNMWQ recorded_value="18911 kcps"
substance=CKFKFQFNMW recorded_value="4107 kcps"
substance="QCKIKQIINMWQ [reference compound]" recorded_value="2606 kcps"
substance=HLHLPLL recorded_value="200 kcps"
substance=IKVAVKIKIQINM recorded_value="4848 kcps"
substance=KLKLKLQL recorded_value="43 kcps"
substance=CKIKIQIRGD recorded_value="5777 kcps"
substance=CKAKAQA recorded_value="363 kcps"
substance=QCKAKAQANM recorded_value="204 kcps"
substance=KIKIQII recorded_value="1039 kcps"
substance=QCKAKAQA recorded_value="1319 kcps"
substance=FDPFDPFDP recorded_value="258 kcps"
substance=QCKFKQFF recorded_value="225 kcps"
substance=CETMYDKILKNLSRSR recorded_value="1099 kcps"
substance=CKIKIQIII recorded_value="4953 kcps"
substance=KIKIKIKIWW recorded_value="9436 kcps"
substance=CRLSLSLS recorded_value="1697 kcps"
substance=CQFQFQF recorded_value="7929 kcps"
substance=CKIKIQINMWQ recorded_value="1881 kcps"
substance=HHHHKIKIKIKIWWWW recorded_value="23757 kcps"
substance=KIKIQIRGD recorded_value="114 kcps"
substance=KNERIKNERI recorded_value="322 kcps"
substance="VHDCVNITIK [reference compound]" recorded_value="12542 kcps"
substance=QCKFKFQF recorded_value="2669 kcps"
substance=RVHLGLG recorded_value="28.33 kcps"
substance=MKFKFQF recorded_value="124 kcps"
substance=KAKAQA recorded_value="21 kcps"
substance=KFKFQFNM recorded_value="132 kcps"
substance=RGDKIKIQINMWQ recorded_value="1554 kcps"
substance=KFKQFFNMWQ recorded_value="237 kcps"
substance="GNNQQNY [reference compound]" recorded_value="37 kcps"
substance="IIKIIK [reference compound]" recorded_value="4 kcps"
substance="VLYVGSKT [reference compound]" recorded_value="24 kcps"
substance=KFKFQFW recorded_value="122 kcps"
substance=CKFKFQFNMWQ recorded_value="143 kcps"
